All figures here come from PubChem BioAssay AID652154.

assay: PAX8 transcriptional activity inhibition in RMG-I – RMG-I cells, luciferase, single concentration, primary screen (AID 652154); conditions: RMG-I TPO-luciferase reporter, SteadyGlo, 24 h; at 12.6 µM; hits give high values;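 also: luciferase light reporting Pax8 driven TPO promoter activity; plate controls were median of neutral control wells for no effect and mitoxantrone controls for full effect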
Screen size: about 360,000 compounds; about 4,200 (1.2%) were called active. Many of the other results were omitted from the sample, so actives are more common in it than they were.
property_measured: inhibition (%)
Give bare numbers, in %.

Answered cases to consult:
{"query_smiles": "O=C(CCc1ccc(O)cc1)NN=Cc1cc(Br)ccc1O", "inhibition, %": 5.02}
{"query_smiles": "COC(=O)C(CC#Cc1ccc2c(c1)[C@]1(C(=O)N2)[C@H](c2ccccc2OCCO)N2[C@H](c3ccccc3)[C@H](c3ccccc3)OC(=O)[C@H]2[C@@H]1C(N)=O)C(=O)OC", "inhibition, %": 92.9}

# per-item lookup of inhibition; items listed below
1. O=C(C1CCOCC1)N1CC(=O)N2[C@H](CO)[C@H](c3ccc(C#Cc4cccc(F)c4)cc3)[C@H]2C1
2. C[C@H](CO)N1C[C@H](C)[C@@H](CN(C)S(=O)(=O)c2cn(C)cn2)Oc2ccc(NS(=O)(=O)c3cn(C)cn3)cc2C1=O
3. CO[C@H]1CN(C)C(=O)c2ccc(NC(=O)c3ccno3)cc2OC[C@@H](C)N(S(C)(=O)=O)C[C@H]1C
4. C=CCC[C@@H](Cc1ccc(F)cc1)C(=O)OC[C@H](Cc1c[nH]c2ccccc12)NC(=O)[C@@H](CC=C)CC(=O)N(CCO)Cc1ccccc1
5. COc1ccccc1-c1ccc([C@H]2[C@H](CO)N(C(=O)C3CC3)C23CN(C(C)=O)C3)cc1

A:
[-14.5, -10.4, -22.4, 75.3, 1.61]

# per-item lookup of inhibition; items listed below
1. C[C@@H]1CN([C@@H](C)CO)C(=O)Cc2cc(NC(=O)Cc3ccccc3)ccc2O[C@@H]1CN(C)Cc1ccc2c(c1)OCO2
2. C[C@H](O)C#Cc1ccc2c(c1)O[C@H](CN(C)C)[C@@H](C)CN([C@H](C)CO)S2(=O)=O
3. O=C(C[C@@H]1CC[C@H](NS(=O)(=O)c2cccc(F)c2)[C@H](CO)O1)N1CCCCC1

A:
13.6
-9.29
2.78
